Origin of values: ChEMBL document CHEMBL3244363

assay: Acute toxicity in ip dosed ddk mouse assessed as lethality after 72 hrs; assay type: organism-based; details: in vivo
Parameter: LD50 at 72 h. Scope: all listed entries.
Quick note: give the figure in mg/kg, leave out the unit.

Here are 4 compounds together with their reported answers.
[
  {
    "compound": "Cc1ccccc1-n1c(CF)nc2ccc(N)cc2c1=O [AFLOQUALONE]",
    "uom": "mg/kg",
    "LD50 at 72 h": 315
  },
  {
    "compound": "Cc1ccccc1-n1c(CF)nc2ccccc2c1=O",
    "uom": "mg/kg",
    "LD50 at 72 h": 710
  },
  {
    "compound": "Cc1cc(Cl)ccc1-n1c(CF)nc2ccccc2c1=O",
    "uom": "mg/kg",
    "LD50 at 72 h": 432
  },
  {
    "compound": "Cc1c(Cl)cccc1-n1c(CF)nc2ccccc2c1=O",
    "uom": "mg/kg",
    "LD50 at 72 h": 1560
  }
]

Attention now shifts to the item below.
Ask | If you can, please state the reported LD50 at 72 h value of Cc1ccccc1-n1c(C)nc2ccccc2c1=O [METHAQUALONE] .
Reply | 542

---

Documented ED50 across a set of compounds
test system: Mus musculus; test: Induction of CNS depressant activity in ip dosed ddk mouse assessed as protection against maximal electroshock-induced tonic hind limb extensor seizures administered 30 mins prior to electroshock challenge; assay type: functional; conditions: Central nervous system
Write down the numeric answer in mg/kg and omit the unit.

[
  {
    "lineNotation": "Cc1ccccc1-n1c(C)nc2ccc(N)cc2c1=O",
    "ED50, mg/kg": 25.4
  },
  {
    "lineNotation": "Cc1ccccc1-n1c(CF)nc2ccc(N)cc2c1=O",
    "ED50, mg/kg": 13.3
  },
  {
    "lineNotation": "O=c1c2ccccc2nc(CF)n1-c1ccccc1",
    "ED50, mg/kg": 116
  },
  {
    "lineNotation": "Cc1cc(Cl)ccc1-n1c(CF)nc2ccccc2c1=O",
    "ED50, mg/kg": 14.1
  }
]

Ask | Any idea what its ED50 is? The compound is `Cc1c(Cl)cccc1-n1c(CF)nc2ccccc2c1=O`
Reply | 15

---

system: Mus musculus; test: Induction of CNS depressant activity in ip dosed ddk mouse assessed as protection against maximal electroshock-induced tonic hind limb extensor seizures administered 30 mins prior to electroshock challenge; assay type: functional; details: Central nervous system
measurementType: ED50 (mg/kg)
Express your answer in mg/kg, writing the number without its unit.

[
  {
    "lineNotation": "Cc1ccccc1-n1c(CF)nc2ccccc2c1=O",
    "uom": "mg/kg",
    "recordedNumber": 25.2
  },
  {
    "lineNotation": "O=c1c2ccccc2nc(CF)n1-c1ccc(Cl)cc1Cl",
    "uom": "mg/kg",
    "recordedNumber": 8.1
  },
  {
    "lineNotation": "Cc1ccccc1-n1c(C)nc2ccccc2c1=O",
    "uom": "mg/kg",
    "recordedNumber": 35.2
  }
]

Ask | Quick one: ED50 of `Cc1ccccc1-n1c(CF)nc2cccc(Cl)c2c1=O` ?
Reply | 40.3
